Cited source for all entries: ChEMBL document CHEMBL4831486

Test system: Staphylococcus aureus
method-description: Bactericidal activity against Methycillin-resistant Staphylococcus aureus ATCC 43300 assessed as inhibition of bacterial growth measured after 96 hrs by broth dilution method
Type: functional
Reported MBC values for a set of compounds
Report only the number, with the unit µg/mL understood.

A selection of reference data follows.
# query-smiles, value-type, readout-number
measured = [
    ("C=C[C@]1(C)C[C@@H](OC(=O)CSc2nnc(C)n2/N=C/c2ccc(-c3ccccn3)cc2)[C@]2(C)[C@H](C)CC[C@]3(CCC(=O)[C@H]32)[C@@H](C)[C@@H]1O", "MBC", 1),
    ("C=C[C@]1(C)C[C@@H](OC(=O)CSc2nnc(C)n2/N=C/c2ccc(C(F)(F)F)cc2)[C@]2(C)[C@H](C)CC[C@]3(CCC(=O)[C@H]32)[C@@H](C)[C@@H]1O", "MBC", 4),
    ("C=C[C@]1(C)C[C@@H](OC(=O)CSc2nnc(C)n2/N=C/c2ccc(Cl)cc2)[C@]2(C)[C@H](C)CC[C@]3(CCC(=O)[C@H]32)[C@@H](C)[C@@H]1O", "MBC", 2),
    ("C=C[C@]1(C)C[C@@H](OC(=O)CSc2nnc(C)n2/N=C/c2ccccc2C)[C@]2(C)[C@H](C)CC[C@]3(CCC(=O)[C@H]32)[C@@H](C)[C@@H]1O", "MBC", 2),
]

## Input // returns reported MBC for input `C=C[C@]1(C)C[C@@H](OC(=O)CSc2nnc(C)n2/N=C/c2ccc(O)cc2)[C@]2(C)[C@H](C)CC[C@]3(CCC(=O)[C@H]32)[C@@H](C)[C@@H]1O`
## Output 1

* * *

In this section, each of the compounds is paired with its reported MIC.
System: Staphylococcus aureus
method-description: Antibacterial activity against Methycillin-resistant Staphylococcus aureus ATCC 43300 assessed as inhibition of bacterial growth measured after 24 hrs by broth dilution method
Type: functional

# compound, value-type, result
measured = [
    ("C=C[C@]1(C)C[C@@H](OC(=O)CSc2nnc(C)n2/N=C/c2ccccc2)[C@]2(C)[C@H](C)CC[C@]3(CCC(=O)[C@H]32)[C@@H](C)[C@@H]1O", "MIC", "0.5 µg/mL"),
]

## Input Which MIC is listed for `C=C[C@]1(C)C[C@@H](OC(=O)CSc2nnc(C)n2/N=C/c2ccccc2O)[C@]2(C)[C@H](C)CC[C@]3(CCC(=O)[C@H]32)[C@@H](C)[C@@H]1O` ?
## Output 0.5 µg/mL

## Input Thanks! And `C=C[C@]1(C)C[C@@H](OC(=O)CSc2nnc(C)n2/N=C/c2ccc(N(CC)CC)cc2)[C@]2(C)[C@H](C)CC[C@]3(CCC(=O)[C@H]32)[C@@H](C)[C@@H]1O` ?
## Output 4 µg/mL

## Input // next record C=C[C@]1(C)C[C@@H](OC(=O)CSCCN(CC)CC)[C@]2(C)[C@H](C)CC[C@]3(CCC(=O)[C@H]32)[C@@H](C)[C@@H]1O [TIAMULIN]
## Output 0.5 µg/mL
